- Tested on: IL-1ß levels in the plasma
- TEST_SUMMARY: Measurement of IL-1ß production in plasma of LPS-treated SD rats
- Format: in vivo, female Sprague Dawley rats
- MEASUREMENT_CONTEXT: 40 mg/kg p.o.; LPS 5 mg/Kg i.p.; blood 6 h after LPS
MEASURED_PROPERTY: reduction of IL-1ß
Could you write the number and then its unit?

Form field reduction of IL-1ß, entry `CC/C=C\C[C@H]1C(=O)CC[C@@H]1CC(=O)O` : 54.2%

Form field reduction of IL-1ß, entry `CC(/C=C/C=C(\C)C(=O)O)=C\C=C\C=C(C)\C=C\C=C(/C)C(=O)O` : 39.8%

Form field reduction of IL-1ß, entry `N[C@@H](Cn1ccc(=O)c(O)c1)C(=O)O` : 16.3%

Form field reduction of IL-1ß, entry `CC(/C=C/C=C(\C)C(=O)O[C@@H]1O[C@H](CO[C@@H]2O[C@H](CO)[C@@H](O)[C@H](O)[C@H]2O)[C@@H](O)[C@H](O)[C@H]1O)=C\C=C\C=C(C)\C=C\C=C(/C)C(=O)O[C@@H]1O[C@H](CO[C@@H]2O[C@H](CO)[C@@H](O)[C@H](O)[C@H]2O)[C@@H](O)[C@H](O)[C@H]1O` : 50.2%

====

- Test system: IL-1ß production in LPS stimulated J774A.1 cells
- TEST_SUMMARY: IL-1ß assay
- Format: cell-based
- MEASUREMENT_CONTEXT: Mus musculus, J774.A1, 12 h, read-out: IC50 for inhibition of IL-1β J774A.1
MEASURED_PROPERTY: IC50
Could you write the number and then its unit?

Form field IC50, entry `O=C(O)c1cc(O)c(O)c(O)c1` : 47.6 µM

Form field IC50, entry `CC(/C=C/C=C(\C)C(=O)O)=C\C=C\C=C(C)\C=C\C=C(/C)C(=O)O` : 41.1 µM

Form field IC50, entry `CC/C=C\C[C@H]1C(=O)CC[C@@H]1CC(=O)O` : 59.2 µM

Form field IC50, entry `CC(/C=C/C=C(\C)C(=O)O[C@@H]1O[C@H](CO[C@@H]2O[C@H](CO)[C@@H](O)[C@H](O)[C@H]2O)[C@@H](O)[C@H](O)[C@H]1O)=C\C=C\C=C(C)\C=C\C=C(/C)C(=O)O[C@@H]1O[C@H](CO[C@@H]2O[C@H](CO)[C@@H](O)[C@H](O)[C@H]2O)[C@@H](O)[C@H](O)[C@H]1O` : 31.2 µM

Form field IC50, entry CCOC(=O)c1cc(O)c(O)c(O)c1 [compound 3, ethyl gallate] : 39.5 µM

Form field IC50, entry `N[C@@H](Cn1ccc(=O)c(O)c1)C(=O)O` : 65.8 µM

Form field IC50, entry `O=C(O)/C=C/c1ccc(O)c(O)c1` : 62.3 µM

====

- System: NO release in LPS stimulated RAW 264.7 cells
- TEST_SUMMARY: NO inhibitory assay
- Type: cell-based
- MEASUREMENT_CONTEXT: Mus musculus, RAW264.7, read-out: IC50 for NO inhibition, range over both cells
pIC50: −log10 of the molar value.
For each of the compounds below, state its pIC50.

Form field pIC50, entry CC(/C=C/C=C(\C)C(=O)O[C@@H]1O[C@H](CO[C@@H]2O[C@H](CO)[C@@H](O)[C@H](O)[C@H]2O)[C@@H](O)[C@H](O)[C@H]1O)=C\C=C\C=C(C)\C=C\C=C(/C)C(=O)O[C@@H]1O[C@H](CO[C@@H]2O[C@H](CO)[C@@H](O)[C@H](O)[C@H]2O)[C@@H](O)[C@H](O)[C@H]1O [compound 14, crocin] : 4.50 to 4.57

Form field pIC50, entry CC/C=C\C[C@H]1C(=O)CC[C@@H]1CC(=O)O [compound 11, jasmonic acid] : 4.53 to 4.67

Form field pIC50, entry N[C@@H](Cn1ccc(=O)c(O)c1)C(=O)O [compound 12, L-mimosine] : 4.67 to 4.72

Form field pIC50, entry CC(/C=C/C=C(\C)C(=O)O)=C\C=C\C=C(C)\C=C\C=C(/C)C(=O)O [compound 4, crocetin] : 4.59 to 4.63
